Target: Recombinant human LOXL1 (Homo sapiens, UniProt Q08397)
Sequence (Q08397 96-574): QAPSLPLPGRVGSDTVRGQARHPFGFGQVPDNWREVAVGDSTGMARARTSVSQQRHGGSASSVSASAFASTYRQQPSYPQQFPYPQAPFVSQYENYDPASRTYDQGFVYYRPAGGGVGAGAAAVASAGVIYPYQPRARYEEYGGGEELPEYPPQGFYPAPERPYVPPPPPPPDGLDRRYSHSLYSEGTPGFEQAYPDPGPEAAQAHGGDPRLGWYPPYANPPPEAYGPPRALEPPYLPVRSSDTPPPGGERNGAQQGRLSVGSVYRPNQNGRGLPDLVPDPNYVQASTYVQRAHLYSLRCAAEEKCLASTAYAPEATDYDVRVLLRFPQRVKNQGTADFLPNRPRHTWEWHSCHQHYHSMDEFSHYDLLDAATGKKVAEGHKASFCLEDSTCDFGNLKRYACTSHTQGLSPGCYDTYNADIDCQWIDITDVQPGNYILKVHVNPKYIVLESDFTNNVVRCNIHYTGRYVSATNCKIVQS
Test: Amplex-Red fluorometric enzymatic activity assay, recombinant human LOXL1
Details: 30 minute pre-incubation; average of at least three experiments
parameter_measured: pIC50
Lab note — pIC50 values are minus log10 of concentrations in M.

Quick one: pIC50 of Cc1c(-c2cccc(S(=O)(=O)N(C)C)c2)c2ncccc2n1C/C(F)=C/CN.Cl.Cl [PXS-5153A] ?
5.85

---

Molecular target: UniProt:Q9Y4K0
Sequence (Q9Y4K0 26-774): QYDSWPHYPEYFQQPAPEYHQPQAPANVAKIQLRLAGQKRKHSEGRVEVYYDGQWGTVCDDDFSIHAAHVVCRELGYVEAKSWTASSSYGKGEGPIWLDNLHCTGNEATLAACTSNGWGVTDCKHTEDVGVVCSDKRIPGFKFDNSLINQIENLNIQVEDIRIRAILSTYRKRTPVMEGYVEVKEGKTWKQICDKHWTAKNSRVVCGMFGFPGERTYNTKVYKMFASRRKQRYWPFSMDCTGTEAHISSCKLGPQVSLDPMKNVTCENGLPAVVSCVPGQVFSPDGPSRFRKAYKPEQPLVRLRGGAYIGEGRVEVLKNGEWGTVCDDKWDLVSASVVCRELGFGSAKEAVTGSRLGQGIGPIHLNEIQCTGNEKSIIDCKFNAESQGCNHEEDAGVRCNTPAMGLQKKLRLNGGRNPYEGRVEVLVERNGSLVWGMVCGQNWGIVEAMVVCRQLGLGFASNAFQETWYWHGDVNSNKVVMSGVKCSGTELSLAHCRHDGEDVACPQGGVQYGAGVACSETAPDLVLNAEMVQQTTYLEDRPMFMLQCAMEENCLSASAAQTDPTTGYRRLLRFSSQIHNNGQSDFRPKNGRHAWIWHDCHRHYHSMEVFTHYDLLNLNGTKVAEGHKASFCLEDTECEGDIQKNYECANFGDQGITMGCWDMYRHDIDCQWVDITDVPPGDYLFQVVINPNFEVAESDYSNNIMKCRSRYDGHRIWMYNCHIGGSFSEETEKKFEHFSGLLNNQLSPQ
Assay: Amplex-Red fluorometric enzymatic activity assay, recombinant human LOXL2
Conditions: mechanism-based irreversible inhibition; enzyme not given; read-out: apparent binding constant (Ki)
parameter_measured: Ki
Form entry: enter the amount, then its unit.

GET /values?readout=Ki&item= Cc1c(-c2cccc(S(=O)(=O)N(C)C)c2)c2ncccc2n1C/C(F)=C/CN.Cl.Cl [PXS-5153A]
1.01 µM
